procedure-summary: binders of probe aFGF10 on microarray, primary screen, stem cell growth factor project, biochemical, small-molecule microarray, fluorescence 635/667 (AID 1071);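 also: score merges 667 nm spot intensity and signal to noise from triplicate slides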
setup-conditions: higher = more signal
Listed here: items and their measured composite z-score.

# molecule, composite z-score
data = [
    ("COC(=O)[C@H](C)NC(=O)CCC1CC(OC(=O)NCCc2ccc(F)cc2)CC2(CCCC(COC(=O)NCC(c3ccccc3)c3ccccc3)O2)O1 (stereo not given in full)", 0.462),
    ("O=C1O[C@@H](c2ccccc2)[C@@H](c2ccccc2)N2[C@@H](c3ccccc3OCCO)[C@]3(C(=O)Nc4ccc(C#CCCO)cc43)[C@@H](C(=O)O)[C@H]12", 0.798),
    ("CCCC[C@@H]1C[C@H]1[C@@H](NS(=O)(=O)c1cccc2cccnc12)c1ccc(-c2ccccc2)cc1", 0.0132),
    ("CCOC(=O)C1=CC[C@H]2C(=O)N(CC)C(=O)[C@@H]12", 0.772),
    ("COC(=O)[C@@H]1CC[C@H](C)[C@@H](c2ccc(C)cc2)N1C(=O)c1ccc(C=NOC(C)CN2CCCCc3nc(C)c(C)cc32)cc1 (stereo not given in full)", 0.233),
    ("C[C@H]1CC[C@@H](C(=O)O)N[C@@H]1c1ccc(C#CCN(C)C)cc1", 0.185),
    ("CC(C)(C)N1CC=CC23O[C@@H]4C=CCCOC(=O)C4[C@H]2C(=O)N(CCCCCO)[C@@H]3C1=O (stereo not given in full)", 0.448),
    ("CCOC(=O)[C@H](Cc1ccccc1)NC(=O)CCC1CC(OC(=O)NCCc2ccc(F)cc2)CC2(CCCC(COC(=O)NCC(c3ccccc3)c3ccccc3)O2)O1 (stereo not given in full)", 0.627),
    ("C#CCCCON=C1C[C@@H](O)[C@@H](O)[C@@H]2[C@@H]3C(=O)N(CCC(=O)OCC)C(=O)[C@@H]3CC[C@@H]12", -0.0007),
    ("COCCNC(=O)OCC1CCCC2(CC(OC(=O)NCCc3ccc(F)cc3)CC(CCC(=O)N[C@@H](C)C(=O)OC)O2)O1 (stereo not given in full)", 0.632),
    ("O=C1C[C@@H](O)[C@@H](O)[C@@H]2[C@@H]3C(=O)N(C4CCCCC4)C(=O)[C@@H]3CC[C@H]12", 0.593),
    ("COC(=O)C1(C)C=C2C(=C(c3ccccc3)C(=O)C2C)CN1 (stereo not given)", -0.18),
    ("CCCC[C@@H](O)C1=C(C)C[C@H]2C(=O)N(Cc3ccccc3)C(=O)[C@H]2[C@H]1CO", 0.185),
    ("O=C1[C@H]2[C@H]3[C@H](O)[C@H](O)CC(=NOC[C@@H](O)COCc4ccco4)[C@@H]3CC[C@H]2C(=O)N1c1ccc(F)cc1F", 0.138),
    ("CCOC(=O)CCN1C(=O)[C@H]2[C@H]3[C@H](O)[C@H](O)CC(=NOCc4ccccc4)[C@@H]3CC[C@H]2C1=O", 0.193),
]
